assay_method_text: Lipophilicity, log D of the compound at pH 6.5 by chromatographic method
Type: physicochemical
assay_conditions: buffer
Listing of recorded chromatographic logD by entry.

{"columns": ["compound", "chromatographic logD"],
 "data": [
  ["CCC(C(=O)N[C@H]1CC(=O)OC1O)n1c(=O)c(NC(=O)c2ccc(Nc3ccc4ccccc4c3)cc2C)cn(C(C)C)c1=O (stereo partly drawn)", 4],
  ["CC(C)n1cc(NC(=O)c2ccc(Nc3ccc4ccccc4c3)cc2)c(=O)n(CC(=O)N[C@H]2CC(=O)OC2O)c1=O (stereo partly drawn)", 3.2],
  ["Cc1cc(Nc2ccc3ccccc3c2)ccc1C(=O)Nc1cn(C(C)C)c(=O)n(C2(C(=O)N[C@H]3CC(=O)OC3O)CC2)c1=O (stereo partly drawn)", 3.7]
]}
